Assay: small-molecule microarray binders of probe aEGFR, primary screen, biochemical, biotinylated probe, 635/667 nm fluorescence (AID 1097);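 further: probe is a biotinylated anti-EGFR antibody binding compounds printed on slides; score combines fluorescence near 667 nm and signal to noise of each spot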
Conditions: higher = more signal
OBSERVED PROPERTY: composite z-score
Would you mind answering with just the numeric figure?

Known results for compounds:
>>> df
                                   compound   result
0  CC(C)CNC(=O)[C@@]1(c2ccc([N+](=O)[O-])cc2)CC(=O)N(CC23CC4CC(CC(C4)C2)C3)[C@@H]1c1ccc(CO)cc1I  -0.0088
1  CCCCCCc1nc(CCCc2cc3c(c(CCCCCC)n2)[Si](C(C)C)(C(C)C)OC3)cc2c1[Si](C(C)C)(C(C)C)OC2   -0.287
2  COCC1=C2[C@@H](CCc3ccccc3)OB(O)C[C@@H]2[C@@H]2C(=O)N(Cc3ccccc3)C(=O)[C@@H]2C1   -0.132
3  Cc1cc(C)c(C(O)C2C=CC3C(=O)N(c4ccccc4)C(=O)C3N2Nc2ccc(C#N)cc2)c(C)c1 (stereo not drawn)   0.0905
4  [N-]=[N+]=NCc1ccccc1C[C@@]1(C(=O)N2CCOCC2)N=C(c2ccc(OCCCO)cc2)O[C@@H]1c1ccccc1CN=[N+]=[N-]    0.662
5  COC(=O)c1ccc(OC)c(/C=C\CC(OC(C)=O)c2ccccc2)c1 (stereo not drawn)   -0.115

Incoming: Quick one: composite z-score of `CCCCC=C[C@@H](NC(=O)c1ccc(C(=O)OC)cc1)c1ccccc1` ?
Outgoing: -0.0936

Incoming: Requested field: composite z-score. Item: CCN(CC)c1ccc(N2CC=CC34O[C@@H]5C=CCCOC(=O)C5[C@H]3C(=O)N(CCCCCO)[C@@H]4C2=O)cc1 (stereo partly drawn)
Outgoing: -0.168

----------
Biological target: NADPH oxidase 5 (Homo sapiens) (UniProt Q96PH1)
Sequence (Q96PH1 whole entry, looked up): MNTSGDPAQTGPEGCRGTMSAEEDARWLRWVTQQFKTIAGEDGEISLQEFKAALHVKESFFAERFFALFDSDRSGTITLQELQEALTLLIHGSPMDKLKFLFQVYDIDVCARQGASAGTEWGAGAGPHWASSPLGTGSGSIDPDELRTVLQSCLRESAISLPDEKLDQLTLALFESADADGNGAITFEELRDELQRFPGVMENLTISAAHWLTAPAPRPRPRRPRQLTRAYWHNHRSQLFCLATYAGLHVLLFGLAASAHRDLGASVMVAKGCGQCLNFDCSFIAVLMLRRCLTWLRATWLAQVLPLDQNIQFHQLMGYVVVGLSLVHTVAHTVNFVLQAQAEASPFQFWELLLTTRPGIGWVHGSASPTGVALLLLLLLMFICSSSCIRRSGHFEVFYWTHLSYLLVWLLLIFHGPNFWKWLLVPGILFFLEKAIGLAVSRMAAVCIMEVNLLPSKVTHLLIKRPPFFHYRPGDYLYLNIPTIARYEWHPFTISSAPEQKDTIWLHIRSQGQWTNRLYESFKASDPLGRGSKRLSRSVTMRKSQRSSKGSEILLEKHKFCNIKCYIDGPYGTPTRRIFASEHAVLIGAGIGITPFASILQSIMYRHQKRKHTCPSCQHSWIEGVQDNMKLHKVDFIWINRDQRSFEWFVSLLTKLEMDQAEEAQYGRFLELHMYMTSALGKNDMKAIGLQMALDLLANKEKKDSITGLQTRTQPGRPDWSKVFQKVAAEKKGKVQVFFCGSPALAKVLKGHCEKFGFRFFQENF
Assay: NOX5-dependent H2O2 signal modulators, primary screen, NOX inhibitor project, cell-based, HEK293-NOX5, Amplex Red fluorescence (AID 1161)
Conditions: HEK293-NOX5, ionomycin, 45 min, higher = more signal
Could you label it Y if measured z-score is -1 or higher, and N otherwise?

Solved entries:
COMPOUND	CLASS LABEL
CC(C)C(=C=CC[C@H](O)c1ccccc1OCCO)C[C@H](O)c1ccccn1	N
CC(C)CNC(=O)[C@@]1(c2ccc([N+](=O)[O-])cc2)CC(=O)N(CC23CC4CC(CC(C4)C2)C3)[C@@H]1c1ccc(CO)cc1I	Y
COc1c(C)cc(-c2cc3c(c(-c4ccc(Oc5ccccc5)cc4)n2)[Si](C(C)C)(C(C)C)OC3)cc1C	Y
COCC(=C=CC[C@@H](O)c1ccc(CO)o1)CCO	N
CCOC(=O)C1=C[C@@H](C(C)C)N(S(=O)(=O)c2ccc(C)cc2)[C@H]1c1ccc(C(C)C)cc1	Y

Incoming: Is reported z-score greater than or equal to -1 here: CC(C)OC(=O)CC(=O)CC(O)c1ccc(C#N)cc1 (stereo unspecified)
Outgoing: Y

----------
Tested on: Plasmodium falciparum Sir2 (PF13_0152, Sir2A)
Assay: pfSir2 binders on small-molecule microarrays, primary screen, biochemical, small-molecule microarray, 635 nm fluorescence (AID 1098);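 further: score merges spot fluorescence intensity with its signal-to-noise ratio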
Details: small-molecule microarray binding, fluorescence 635 nm; higher = more signal
Entry flag: yes if composite z-score reaches 1; no if it does not.

Recorded results for 7 molecules are shown here.
>>> print(df.to_string())
                                   molecule                                    system  class_label
0  O=C1O[C@@H](c2ccccc2)[C@@H](c2ccccc2)N2[C@@H](c3ccc(OCCO)cc3)[C@]3(C(=O)Nc4ccc(C#CC5=CCCCC5)cc43)[C@@H](C(=O)O)[C@H]12  Plasmodium falciparum Sir2 (PF13_0152, Sir2A)           no
1  CCOC(=O)C1=CCC(c2ccc(C#N)cc2)N(S(=O)(=O)c2ccc(C)cc2)C1 (stereo not drawn)  Plasmodium falciparum Sir2 (PF13_0152, Sir2A)          yes
2  COc1ccc(C(O)C2C=CC3C(=O)N(C)C(=O)C3N2Nc2ccccc2)cc1OCc1ccccc1 (stereo not drawn)  Plasmodium falciparum Sir2 (PF13_0152, Sir2A)          yes
3  COc1cc2c(cc1O)C(C)N(Cc1cccc(OC(F)(F)F)c1)CC2 (stereo not drawn)  Plasmodium falciparum Sir2 (PF13_0152, Sir2A)          yes
4  CC(=O)NCCCC[C@@H]1NC(=O)[C@H]2C[C@@H](C(=O)NCCCCCC[N+](C)(C)C)[C@@H](c3cccc(OCCO)c3)N2C1=O  Plasmodium falciparum Sir2 (PF13_0152, Sir2A)          yes
5  Cc1cc(C)cc(N2C(=O)CS(=O)(=O)C2c2cccc([N+](=O)[O-])c2)c1 (stereo not drawn)  Plasmodium falciparum Sir2 (PF13_0152, Sir2A)           no
6  CCOC(=O)C1=CC[C@@H](c2ccccc2)N(S(=O)(=O)c2ccc(C)cc2)[C@H]1C(=O)OCC  Plasmodium falciparum Sir2 (PF13_0152, Sir2A)           no

Here is the next item to consider.
Incoming: Decide: is the reported value of composite z-score for O=C1C2C=CC(C(O)c3ccc(B(O)O)cc3)N(Nc3ccccc3)C2C(=O)N1c1ccccc1 (stereo not drawn) equal to or greater than 1?
Outgoing: no

----------
Assay: basal RPMI8226 mitochondrial membrane potential changes, profiling panel, cell-based, JC-1 fluorescence, 24 h, 100 nL compound (AID 1169); further: test concentration not given here
Conditions: RPMI8226 myeloma, JC-1 mitochondrial potential fluorescence, higher = more signal
OBSERVED PROPERTY: z-score
Returns: the value as a bare number; no unit string appended.

MOLECULE	RESULT
C=CCN1C(=O)[C@]2(O[C@H](CCO)[C@@H]([Si](C)(C)c3ccc(OC)cc3)[C@@H]2C)c2cc(NC(=O)[C@H](C)O)ccc21	-1.03
C[C@]1(C(=O)NCc2ccccc2)c2ccccc2C(=O)N(Cc2ccc(OC(F)(F)F)cc2)[C@H]1c1ccc(CO)cc1	-0.584
C=C[C@H](C)[C@@H](O)c1ccc(O)c2ccccc12	-0.94
CCOC(=O)C[C@H]1[C@H](OC(=O)c2ccccc2-c2ccccc2)[C@@H](NC(=O)Cc2ccc(OC)cc2)c2cc(OCCCO)ccc2N1C(=O)c1ccccc1	-0.0457
C=CCC(OC(C)=O)[C@@H]1[C@@H](N(Cc2ccc(-c3cccc(C(F)(F)F)c3)o2)C(=O)c2ccc(C)cc2)c2cc(OCCCO)ccc2N1C(=O)c1ccc(-c2ccccc2)cc1 (some centres not stated)	0.866

Incoming: Entry `COCCOC(=O)N1C(=O)[C@@]2(c3cc(C#CCCO)ccc31)[C@H](C(=O)NC[C@H](O)c1ccccc1)[C@H]1C(=O)O[C@H](c3ccccc3)[C@H](c3ccccc3)N1[C@@H]2c1ccc(O)cc1` has what z-score?
Outgoing: 0.571

Incoming: Dear colleague, I am looking for the recorded z-score of the following molecule: COc1ccc(C(O)C2C=CC3C(=O)NC(=O)C3N2Nc2ccccn2)cc1OCc1ccccc1 (configuration not stated)
Outgoing: -0.879

----------
Experiment: MM1S myeloma cell viability, profiling panel, resazurin fluorescence, basal, 24 h, PK04 Diversity Set (AID 1174);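 further: MM1S multiple myeloma cell line; test concentration not given here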
Settings: higher = more signal, called active from +8 up or from −8 down
Entries and their z-score
The response must contain the number and no unit.

Known results for compounds:
                                   compound  result
0  CN1C(=O)C2C(C1=O)C1C=C(CCCO)C2C(c2cccs2)N1C (centres undefined)  -0.739
1  COCCOC(=O)N1C(=O)[C@@]2(c3cc(C#CCCO)ccc31)[C@H](c1ccc(O)cc1)N1[C@H](c3ccccc3)[C@H](c3ccccc3)OC(=O)[C@H]1[C@@H]2C(N)=O  -0.644
2  Cc1ccccc1C(O)C1C=CC2C(=O)N(C)C(=O)C2N1Nc1ccccc1 (centres undefined)   -1.32

Incoming: Recorded z-score of `Cc1ccc(S[C@]2(C(=O)NC3CC3)CC(=O)N(C3CCCCC3)[C@@H]2c2ccc(CO)cc2I)cc1` , please.
Outgoing: -0.232

----------
Assay: modulators of S6 phosphorylation in cells, primary screen, cell-based, A549, cytoblot, luminescence, serum-stimulated (AID 1158);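 further: serum-stimulated A549 lung adenocarcinoma cells; signal is phosphorylated S6 detected by cytoblot immunostaining with HRP secondary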
Conditions: A549 phospho-S6 cytoblot, 5 h, higher = more signal
Let's look at some compounds and their measured z-score.

Past entries and their recorded results:
COMPOUND	OBSERVED PROPERTY	RESULT
CC=CC(O)C1C=CC2C(=O)N(c3ccccc3)C(=O)C2N1Nc1ccc(C(C)C)cc1 (centres undefined)	z-score	-0.521
CCCCC(O)C1C=CC2C(=O)N(C3CCCCC3)C(=O)C2N1Nc1ccc(OC)cc1 (centres undefined)	z-score	-0.62
CC(C)(C)N1CC=CC23O[C@@H]4C=CCOC(=O)[C@@H]4[C@H]2C(=O)N(CCCCCO)[C@@H]3C1=O (some centres undefined)	z-score	-0.301
CC(C)Cc1ccc(CN2CC[C@@H](NS(=O)(=O)c3ccccc3)C2)cc1	z-score	0.709
CN(C)CCCNC(=O)[C@@]1(Cc2ccccc2I)c2ccccc2C(=O)N(Cc2ccccc2C(F)(F)F)[C@H]1c1ccc(CO)cc1	z-score	-0.349
C=CCNC(=O)[C@@H]1[C@H]2C(=O)O[C@H](c3ccccc3)[C@H](c3ccccc3)N2[C@H](c2ccc(OCCO)cc2)[C@@]12C(=O)Nc1ccccc12	z-score	4.16
O=C1O[C@@H](c2ccccc2)[C@@H](c2ccccc2)N2[C@@H](c3ccc(O)cc3)[C@]3(C(=O)Nc4ccc(C#CC5=CCCCC5)cc43)[C@@H](C(=O)O)[C@H]12	z-score	3.05
CCOC(=O)C[C@H]1[C@H](OC(=O)c2ccc(C(=O)c3ccccc3)cc2)[C@@H](NC(=O)C2CCCCC2)c2cc(OCCCO)ccc2N1C(=O)c1ccccc1	z-score	-0.0118
CCCCCCCCCCC(O)C1C=CC2C(=O)N(Cc3ccccc3)C(=O)C2N1n1cnnc1 (centres undefined)	z-score	1.19
COCCOC(=O)N1C(=O)[C@@]2(c3cc(C#CC4=CCCCC4)ccc31)[C@H](C(=O)NC[C@H](O)c1ccccc1)[C@H]1C(=O)O[C@H](c3ccccc3)[C@H](c3ccccc3)N1[C@@H]2c1ccc(O)cc1	z-score	-0.176

Incoming: Any idea what its z-score is? The compound is `CC(C)C(=C=CC[C@H](O)c1cccc(OCCO)c1)C[C@H](O)COCc1ccccc1`
Outgoing: -0.145

Incoming: Quick one: z-score for `C=CCNC(=O)[C@@H]1[C@H]2C(=O)O[C@H](c3ccccc3)[C@H](c3ccccc3)N2[C@H](c2ccccc2OCCO)[C@@]12C(=O)Nc1ccc(C#CC3=CCCCC3)cc12` ?
Outgoing: 2.36

Incoming: Request the reported z-score associated with `CCOC(=O)C1=C[C@@H](C(C)C)N(S(=O)(=O)c2ccc(C)cc2)[C@H]1c1ccc(C(C)C)cc1`
Outgoing: -0.234

Incoming: Consider the compound shown here: COC(=O)C1=CC(CCCO)=CC(C2CC2)N(Cc2sc3ccccc3c2Cl)C=C1C(=O)OC (centres undefined) What is its recorded z-score?
Outgoing: -0.18

Incoming: Data request, read-out z-score, for `COCCOC(=O)N1C(=O)[C@@]2(c3cc(C#CCNC(N)=O)ccc31)[C@H](c1ccc(O)cc1)N1[C@H](c3ccccc3)[C@H](c3ccccc3)OC(=O)[C@H]1[C@@H]2C(=O)NC[C@H](O)c1ccccc1`
Outgoing: 0.155

Incoming: I have this compound here, `C[C@]1(C(=O)NCc2ccccc2)c2ccccc2C(=O)N(Cc2ccc(OC(F)(F)F)cc2)[C@H]1c1ccc(CO)cc1` , and I need its recorded z-score.
Outgoing: 0.843
